# STUDY_SYSTEM: Glucocorticoid receptor (Homo sapiens)
# EXPERIMENT: qHTS assay for small molecule agonists of glucocorticoid receptor signaling (AID 588532);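 also: 100% = dexamethasone at 0.1 µM and 0% = DMSO only wells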
# CONDITION: HeLa MMTV-bla, beta-lactamase ratio, agonist, 18 h; stronger effect = higher value; percent of dexamethasone control, DMSO zero
Records with an inconclusive call do not appear.
Each entry below lists one item and its recorded activation value.
Please give a number only; it is taken to be in %.

Some solved entries appear below for comparison.
> print(dat)
                                   compound  unit.string  recorded.value
1                   Cc1ccc(S(=O)(=O)NCl)cc1            %           0.935
2  C=CC(C)(O)CC/C=C(\C)CCC=C(C)C (stereo not drawn)            %            1.37
3                    CC1=CC(=O)NS(=O)(=O)O1            %           -3.71

Bench note: what activation did `CO/N=C(/C(=O)N[C@@H]1C(=O)N2C(C(=O)O)=C(COC(N)=O)CS[C@H]12)c1ccco1` show?
5.73

// query: `CCOC(C)OCC`
-4.92

// query: `OCl`
-3.26

// query: O=c1n(CC2CO2)c(=O)n(CC2CO2)c(=O)n1CC1CO1 (stereo not drawn)
-4.93

// query: `CCCCCCCCCCCCCCCCCC(=O)OC[C@@H](O)[C@H]1OC[C@H](O)[C@H]1O`
3.63

// query: `CC(C)CCCCCCc1ccc(O)cc1`
-1.88

// query: `CO[C@@H]1[C@H](OC(=O)/C=C/C=C/C=C/C=C/C(=O)O)CC[C@]2(CO2)[C@H]1[C@@]1(C)O[C@@H]1CC=C(C)C`
-1.18

// query: `ClC(Cl)Cl`
-4.49

// query: `CC(C)CCC[C@@H](C)[C@H]1CC[C@H]2[C@@H]3CC=C4C[C@@H](O)CC[C@]4(C)[C@H]3CC[C@]12C`
13.5

// query: `O=P(O)(O)O`
-2.92

---

Each entry below lists one item and its recorded ratio activity, negative = inhibition value.
# EXPERIMENT: S16 Schwann cell PMP22 intronic element beta-lactamase assay (AID 624044);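 also: 0% = DMSO and -100% = potassium clavulanate positive control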
# CONDITION: S16 rat Schwann cells, PMP22 element beta-lactamase FRET, 24 h; at 38.3 µM (top of the series) unless noted
Records with an inconclusive call do not appear.
Please give a number only; it is taken to be in %.

Some solved entries appear below for comparison.
> print(dat)
                           molecular.string  unit.string  recorded.value
1                         CCCCCCCCCCCCOCCCN            %           0.509
2                   C(=C\c1ccncc1)/c1ccccc1            %           -6.31
3                  CC(=O)Nc1ccc(OC(C)=O)cc1            %           -15.5
4            CCN(CC)CCOc1ccc2nc(N(C)C)sc2c1            %           0.178
5  CN(C)CCOc1ccc(/C(=C(/CCCl)c2ccccc2)c2ccccc2)cc1            %            -1.5

Bench note: what ratio activity, negative = inhibition did `CS(=O)(=O)c1ccc([C@@H](O)[C@@H](COC(=O)CN)NC(=O)C(Cl)Cl)cc1` show?
3.99
